The molecules listed here are annotated with their normalized growth.
Assay: chemical genetic growth profiling, strain panel (AID 1159580);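 note: tested at 20 µM; growth read once vehicle control cultures reached saturation at 30 °C; 1 = growth at the plate median or of vehicle wells; lower values mean less growth of the strain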
Details: S. cerevisiae deletion strains, growth OD, locus YLR371W, strain rom2, active compounds read low
About 2,000 (36%) of roughly 5,500 compounds were called active. Not shown: some 18% with an inconclusive outcome. Some of the results follow. *1 amine or outer side, *2 acyl side, *3 side chain or, on linkers, in order; H or OH if unused. Where a SMILES comes first, the peptide text is derived from it. Bridges are numbered along the chain shown (N, C = ends). [ ]: non-standard residue; d: D form. The star is where a group is joined. ξ: configuration not given here. ΔAla(E,3-NHCONH2) = NC(=O)N/C=C(/N)C(=O)O; X2 = NC1=NCCC(C(N[*:1])C(=O)[*:2])N1; ξβ3hOrn = NCCCC(N)CC(=O)*; Dap = NC[CH](N)C(=O)O
measurement label: normalized growth

molecule=COc1cccc(O)c1O value_observed=1
molecule="CC(=O)OCC1=C(C(=O)O)N2C(=O)[C@@H](NC(=O)CCCC(N)C(=O)O)C2SC1 (stereo not given in full)" value_observed=1.01
molecule=NCCc1c[nH]c2ccccc12 value_observed=0.982
molecule="NC1CC1c1ccccc1 (stereo not given)" value_observed=0.984
molecule="NC1C[C@H]1c1ccccc1 (stereo not given in full)" value_observed=0.972
molecule="C[C@]12CCC(=O)C=C1CCC1C2C(=O)C[C@@]2(C)C1CC[C@]2(O)C(=O)CO (stereo not given in full)" value_observed=1.01
molecule="C[C@]12CCC(=O)C=C1CCC1C2[C@@H](O)C[C@@]2(C)C1CC[C@]2(O)C(=O)COC(=O)CCC(=O)O (stereo not given in full)" value_observed=0.996
molecule=COc1ccc2c(=O)ccoc2c1 value_observed=1.02
molecule="CC1=CC(=O)C2=C(C)CC(O)C3C(C)C(=O)OC3C12 (stereo not given)" value_observed=1.05
molecule=CC(=O)NO value_observed=0.987
molecule=Cc1cc(C(C)(C)C)cc(C)c1CC1=NCCN1 value_observed=1
molecule=CC[C@H]1OC(=O)[C@H](C)[C@@H](O[C@H]2C[C@@](C)(OC)[C@@H](O)[C@H](C)O2)[C@H](C)[C@@H](O[C@@H]2O[C@H](C)C[C@H](N(C)C)[C@H]2O)[C@](C)(O)C[C@@H](C)[C@@H]2N[C@@H](COCCOC)O[C@H]([C@H]2C)[C@]1(C)O value_observed=1
molecule="NCCCC(N)CC(=O)NCC1NC(=O)C(CO)NC(=O)C(N)CNC(=O)C(C2CCN=C(N)N2)NC(=O)/C(=C\\NC(N)=O)NC1=O (stereo not drawn) (H-[Dap]S[Dap](ξβ3hOrn)[ΔAla(E,3-NHCONH2)][X2]; lactam 1-C; configuration not given here)" value_observed=0.999
molecule=NC[C@H]1O[C@H](O[C@H]2[C@H](O)[C@@H](O[C@H]3O[C@H](CO)[C@@H](O)[C@H](N)[C@H]3O)[C@H](N)C[C@@H]2N)[C@H](N)C[C@@H]1O value_observed=1.02
molecule="C#CC1(O)CCC2C3CCC4=CC(=O)CCC4(C)C3CCC21C (stereo not given)" value_observed=0.987
molecule="CC(=O)OCC(=O)[C@@]12OC3(CCCC3)O[C@@H]1CC1C3CCC4=CC(=O)C=C[C@]4(C)[C@@]3(F)[C@@H](O)C[C@@]12C (stereo not given in full)" value_observed=0.984
molecule=CCNc1nc(Cl)nc(NCC)n1 value_observed=1
molecule=COc1cc(-c2coc3cc(O[C@@H]4O[C@H](CO)[C@@H](O)[C@H](O)[C@H]4O)c(OC)c(O)c3c2=O)cc(O)c1OC value_observed=1.01
molecule=CC(=O)Oc1cccc2c1C(=O)c1c(OC(C)=O)cc(C(=O)O)cc1C2=O value_observed=0.433
molecule=COc1cc(O)cc(OC)c1OC value_observed=1
molecule=NC(=O)NO value_observed=0.997
molecule=CO[C@@]1(NC(=O)Cc2cccs2)C(=O)N2C(C(=O)O)=C(COC(N)=O)CS[C@@H]21 value_observed=0.992
molecule=CC1=NN(c2ccccc2)C(=O)C1 value_observed=0.913
molecule=CC(=O)N[C@@H](Cc1c[nH]c2ccccc12)C(=O)O value_observed=1.03
molecule=O=C(CCc1ccc(O)cc1)c1c(O)cc(O)cc1O[C@@H]1O[C@H](CO)[C@@H](O)[C@H](O)[C@H]1O value_observed=0.997
molecule=O=C1c2ccccc2C(=O)C1c1ccccc1 value_observed=1.01
molecule="CC(=O)O[C@H]1CC[C@]2(C)C3CC[C@@]4(C)C(CC5O[C@@]6(CCC(C)CO6)[C@@H](C)C54)C3CC[C@H]2C1 (stereo not given in full)" value_observed=0.991
molecule="NC[C@H]1O[C@H](O[C@H]2C(O[C@@H]3O[C@H](CO)[C@@H](O)[C@H]3O)[C@@H](O)[C@H](N)C[C@@H]2N)[C@H](N)[C@@H](O)[C@@H]1O (stereo not given in full)" value_observed=0.987
molecule=CN[C@@H]1[C@@H](O[C@H]2O[C@H](CO)[C@@H](N)[C@H](O)[C@H]2O)O[C@H]2C[C@@H](N)[C@H](O[C@H]3[C@H](O)[C@@H](O)[C@H](N)C[C@@H]3N)O[C@@H]2[C@@H]1O value_observed=1.01
molecule=Cc1cc(C(C)(C)C)c(O)c(C)c1CC1=NCCN1 value_observed=1.01

Cited source: PubChem BioAssay AID1159580
